Every entry's value here was drawn from the supplement of paper PMC13380429.

- System: Vero E6 infected with SARS-CoV-2
- Method: inhibition of SARS-CoV-2 cytopathic effect; higher = more antiviral protection, active = above 15
- Experimental Context: 8.33 nM; 48 h
Measurement Kind: inhibition of SARS-CoV-2 cytopathic effect (%)
Answer format: numeric, % implied, no suffix.

Some entries whose results are on file:
Cc1c(Cn2c(C)nc3c(C(=O)O)cc(N4CCOCC4)cc32)cccc1C(F)(F)F : 4.39
CN1CCCN=C1COC(=O)C(O)(c1ccccc1)C1CCCCC1 (stereo unspecified) : 0.59
O=C(O)c1cc(N2N=C(C(F)(F)F)/C(=C/c3ccc(-c4ccccc4)o3)C2=O)ccc1Cl : 1.11
CC(C)(O)C(=O)N1CCN(c2ccc(C(F)(F)F)c(C3=C(c4c[nH]c5ccccc45)C(=O)NC3=O)c2)CC1 : -0.68
OC[C@H]1O[C@H](O[C@]2(CCl)O[C@H](CCl)[C@@H](O)[C@@H]2O)[C@H](O)[C@@H](O)[C@H]1Cl : 0.58

// returns reported inhibition of SARS-CoV-2 cytopathic effect for input COc1cc(OC)c(NC(=O)Nc2cc(C)on2)cc1Cl
0.81

====

- Tested on: Vero E6 infected with SARS-CoV-2
- Method: morphology score (similarity to uninfected cells); higher = more like uninfected cells
- Experimental Context: 24 h
Measured morphology score by item
Field format: numeric only.

Some entries whose results are on file:
C[C@H](CS)C(=O)N1CCC[C@H]1C(=O)O [captopril] (10 µM) : 0.0071
OC(CCN1CCCCC1)(c1ccccc1)C1CCCCC1 (centres undefined) [trihexyphenidyl] (10 µM) : 0.167
Cn1cc(-c2ccc(S(=O)(=O)n3ccc(/C=C/C(=O)Nc4ccccc4N)c3)cc2)cn1 (10 µM) : -0.0742
CC(C)C[C@@H](C=O)NC(=O)[C@H](CC(C)C)NC(=O)[C@H](CC(C)C)NC(=O)OCc1ccccc1 (10 µM) : 0.514

// query morphology score value for entry Fc1ccc(-c2nc3n(c2-c2ccncc2)CCS3)cc1 (10 µM)
0.209

Same for CCOP(=S)(OCC)Oc1cc(C)nc(C(C)C)n1 [dimpylate] (10 µM)
-0.0379

Then this molecule: CC(C)(CO)[C@@H](O)C(=O)NCCC(=O)O [pantothenic-acid] (10 µM)
0.0324

And then CO/N=C(\C(=O)N[C@@H]1C(=O)N2C(C(=O)[O-])=C(C[N+]3(C)CCCC3)CS[C@H]12)c1csc(N)n1 [cefepime] (10 µM) , what is it?
0.0622

Also CC1=C(C(=O)O)N2C(=O)[C@@H](NC(=O)[C@H](N)c3ccccc3)[C@H]2SC1 [cephalexin] (10 µM) ?
0.0139

Proceed to C[C@]12CC[C@H](O)C[C@H]1CC[C@@H]1[C@@H]2CC[C@]2(C)[C@@H](c3ccc(=O)oc3)C[C@H]3O[C@]132 [resibufogenin] (10 µM)
-0.241

====

- Test system: Vero E6 infected with SARS-CoV-2
- Method: inhibition of SARS-CoV-2 cytopathic effect; higher = more antiviral protection, active = above 15
- Experimental Context: 100 nM; 48 h
Measurement Kind: inhibition of SARS-CoV-2 cytopathic effect (%)
Number in %, nothing else.

Observe how each entry below is paired with its result.
C[N+](C)(C)CC#CCN1CCCC1=O : 2.23
Cc1ccc(S(=O)(=O)NC2c3ccccc3Oc3ccccc32)cc1 : -2.17
Oc1c(I)cc(I)c2cccnc12 : -1.12
CCC(C(=O)O)c1ccc(CC(C)C)cc1 (stereo not drawn) : 1.35
CCC[C@@H]1CC(=O)N([C@@H](CC)C(N)=O)C1 : -2.91

Please look up its inhibition of SARS-CoV-2 cytopathic effect: COc1ccc2[nH]c3c(-c4cccc5ccccc45)nccc3c2c1
-0.2

Could you do the same for Nc1nc(Cl)nc2c1ncn2[C@@H]1O[C@H](CO)[C@@H](O)[C@H]1O , please?
-0.34

Next: CC1=C(C(=O)OC(C)C)C(c2cccc([N+](=O)[O-])c2)C(C(=O)OC2CN(C(c3ccccc3)c3ccccc3)C2)=C(N)N1 (stereo not drawn)
-0.26

====

// values below are reported inhibition of SARS-CoV-2 cytopathic effect
- System: Vero E6 infected with SARS-CoV-2
- Method: inhibition of SARS-CoV-2 cytopathic effect; higher = more antiviral protection, active = above 15
- Experimental Context: 833.33 nM; 48 h
Numeric answer only, unit % assumed.

Cc1ccc(NCCCc2ccccc2)c(N)c1 : -1.12
N#CC(C#N)=Cc1ccc(O)c(O)c1 : 0.73
Nc1ncnc2c1ncn2[C@@H]1O[C@H](COP(=O)(O)O)[C@@H](O)[C@H]1O [adenosine-phosphate] : -3.83
C=CCNc1c(O)cc2c(O)c1C[C@@H](C)C[C@H](OC)[C@H](O)[C@@H](C)/C=C(\C)[C@H](OC(N)=O)[C@@H](OC)/C=C\C=C(/C)C(=O)N2 : 5.56
O=C(O)c1ccc(OCCn2ccnc2)cc1 : -0.21
C[C@H](NCc1ccc(OCc2ccccc2F)cc1)C(N)=O [priralfinamide] : 0.58
CCCOC(=O)c1ccccc1 [propyl-benzoate] : 0.39
Cc1c(O)c(=O)n(-c2ccccc2)n1C [4-hydroxy-phenazone] : -1.8
C#CCN1C(C)=C(C(=O)OC)C(c2cccc([N+](=O)[O-])c2)C(C(=O)OCC)=C1C (centres undefined) : 3.36
CCCCc1nc(Cl)c(CO)n1Cc1ccc(-c2ccccc2-c2nnn[nH]2)cc1 : -2.88

So what's the measured inhibition of SARS-CoV-2 cytopathic effect for this one? CN1CCN(CCOc2cc(OC3CCOCC3)c3c(Nc4c(Cl)ccc5c4OCO5)ncnc3c2)CC1
-7

One more compound: Nc1ccc(S(=O)(=O)Nc2ccccn2)cc1
-1.04

For COc1ccc(Oc2c(Cl)cnn(C3c4ccccc4-c4ccccc43)c2=O)cc1 then?
-0.63

====

# Lookup of reported inhibition of SARS-CoV-2 cytopathic effect keyed by entry
- Test system: Vero E6 infected with SARS-CoV-2
- Method: inhibition of SARS-CoV-2 cytopathic effect; higher = more antiviral protection, active = above 15
- Experimental Context: 8.33 nM; 48 h
Where a name gives a salt, the structure may show the parent alone.
# unit: % | format: bare number

Here's what some known entries look like.
O=C(O)Cc1ccccc1Nc1c(Cl)cccc1Cl : 0.03
COC1=CC(=O)C[C@@H](C)[C@]12Oc1c(Cl)c(OC)cc(OC)c1C2=O : 0.82
C=CCN1C[C@H](C(=O)N(CCCN(C)C)C(=O)NCC)C[C@@H]2c3cccc4[nH]cc(c34)C[C@H]21 : -12.2
COc1ccccc1OCC(O)COC(N)=O (stereo unspecified) : -0.67

May I ask what inhibition of SARS-CoV-2 cytopathic effect has been recorded for COc1ccc(/C=C/C(=O)Nc2ccccc2C(=O)O)cc1OC ?
-1.52

Can you handle N=C1CCCN1Cc1[nH]c(=O)[nH]c(=O)c1Cl next?
2.02

Then what about the compound CCCCc1ncc(/C=C(\Cc2cccs2)C(=O)O)n1Cc1ccc(C(=O)O)cc1 ?
-0.99

// repeat for O=C(Nc1ccc(C(O)(C(F)(F)F)C(F)(F)F)cc1)c1ccc(C(F)(F)F)cc1 and report
1.24

Same lookup for NCCC(Oc1ccc(C(F)(F)F)cc1)c1ccccc1 (stereo unspecified) , please.
2.75

Can you handle CS(=O)(=O)CCNCc1nc(-c2ccc3ncnc(Nc4ccc(OCc5cccc(F)c5)c(Cl)c4)c3c2)cs1 next?
3.81

Next entry: C[C@H](NC[C@H](O)CP(=O)(O)CC1CCCCC1)c1ccc(Cl)c(Cl)c1
-0.56

And the next one, O=c1c(-c2ccc(O)cc2)coc2cc(O)cc(O)c12 ?
1.66

Repeat with O=C(O)CCCN1C(=O)c2cccc3cccc(c23)C1=O
-1.77

Likewise for CNC(=O)[C@H]1O[C@@H](n2cnc3c(NCc4cccc(I)c4)nc(Cl)nc32)[C@H](O)[C@@H]1O ?
3.03

Next compound: COc1ccc(COc2cc3oc(=O)c4cc(C(C)O)ccc4c3cc2OC)cc1 (stereo unspecified)
-1.83

Next compound up: O=C1C=Cc2cc(Br)ccc2C1=O
0.78

Next compound up: Clc1ccc(N/N=C(\c2ccccc2)c2ccccn2)nc1
-0.79

Also check CNC(=O)c1cccc(NC(=O)N2CCC(Oc3ccccc3Cl)CC2)c1
-3.23

What do you have for N#CCC(=O)c1ccccc1 ?
4.15

Field entry: CC(=O)Oc1ccccc1C(=O)Nc1ncc([N+](=O)[O-])s1 [nitazoxanide]
-3.73

Another compound to check: CC(=O)O[C@@H]1C[C@H]2C(C)(C)C(=O)C=C[C@]2(C)[C@H]2CC[C@@]3(C)[C@H](c4ccoc4)OC(=O)[C@H]4O[C@]43[C@@]21C
-1.68

Next entry: CC1=NN(c2ccc(C)c(C)c2)C(=O)/C1=N\Nc1cccc(-c2cccc(C(=O)O)c2)c1O
2.25

Likewise for C[C@H](N)Cc1c[nH]cn1 [alpha-methylhistamine-dihydrobromide-(S)-(+)] ?
-0.765

How about this compound: O=C(O)Cc1cccc2c(=O)cc(-c3ccccc3)oc12
0.65
